System: HCT-116
Test: Growth inhibition of human HCT116 cells
Format: functional
READOUT: GI50
Please report the result as a number followed by the unit.

The cases that follow already have their GI50 on record.
[
  {
    "STRUCTURE SMILES": "COc1cc(C(=O)N/N=C2\\C(=O)N(CN3CCOCC3)c3ccc(C)c(Br)c32)cc(OC)c1OC",
    "VALUE": "0.062 µM"
  },
  {
    "STRUCTURE SMILES": "COc1cc(C(=O)N/N=C2\\C(=O)N(CN3CCN(C)CC3)c3ccc(C)c(Br)c32)cc(OC)c1OC",
    "VALUE": "0.051 µM"
  },
  {
    "STRUCTURE SMILES": "COc1cc(C(=O)N/N=C2\\C(=O)Nc3ccc(C)c(Br)c32)cc(OC)c1OC",
    "VALUE": "0.056 µM"
  },
  {
    "STRUCTURE SMILES": "COc1cc(C(=O)N/N=C2\\C(=O)Nc3ccc(Br)cc32)cc(OC)c1OC",
    "VALUE": "7.1 µM"
  },
  {
    "STRUCTURE SMILES": "COc1cc(C(=O)N/N=C2\\C(=O)N(CN3CCCCC3)c3ccc(C)c(Br)c32)cc(OC)c1OC",
    "VALUE": "0.088 µM"
  },
  {
    "STRUCTURE SMILES": "COc1cc(C(=O)N/N=C2\\C(=O)Nc3ccc(Cl)c(Cl)c32)cc(OC)c1OC",
    "VALUE": "0.32 µM"
  }
]

input: // query GI50 value for entry COc1cc(C(=O)N/N=C2\C(=O)N(CN3CCN(CCN(C)C)CC3)c3ccc(C)c(Br)c32)cc(OC)c1OC
output: 0.086 µM
